# tgt: Integrin alpha-4/beta-1 (Homo sapiens, UniProt P05556+P13612)
# Sequence (P05556 whole entry): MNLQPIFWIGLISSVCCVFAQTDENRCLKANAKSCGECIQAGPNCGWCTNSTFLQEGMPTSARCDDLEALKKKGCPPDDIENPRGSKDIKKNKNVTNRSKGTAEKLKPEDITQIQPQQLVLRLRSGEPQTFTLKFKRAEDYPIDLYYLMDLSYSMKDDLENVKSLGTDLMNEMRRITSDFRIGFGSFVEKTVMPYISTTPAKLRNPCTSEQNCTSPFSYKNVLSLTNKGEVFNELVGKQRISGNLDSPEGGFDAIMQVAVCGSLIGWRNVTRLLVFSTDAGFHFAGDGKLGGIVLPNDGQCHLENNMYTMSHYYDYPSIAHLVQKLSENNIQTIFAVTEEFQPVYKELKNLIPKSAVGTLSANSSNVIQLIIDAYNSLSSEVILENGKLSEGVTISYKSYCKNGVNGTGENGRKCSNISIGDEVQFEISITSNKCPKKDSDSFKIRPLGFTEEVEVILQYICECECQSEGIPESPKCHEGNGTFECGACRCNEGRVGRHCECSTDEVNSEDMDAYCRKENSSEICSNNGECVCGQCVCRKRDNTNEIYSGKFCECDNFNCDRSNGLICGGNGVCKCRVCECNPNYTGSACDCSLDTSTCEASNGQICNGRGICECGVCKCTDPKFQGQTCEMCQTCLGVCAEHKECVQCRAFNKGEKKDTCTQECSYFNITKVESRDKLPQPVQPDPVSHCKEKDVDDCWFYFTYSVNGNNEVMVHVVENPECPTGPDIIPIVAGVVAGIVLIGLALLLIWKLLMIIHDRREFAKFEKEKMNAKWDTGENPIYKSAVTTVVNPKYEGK
# Sequence (P13612 whole entry): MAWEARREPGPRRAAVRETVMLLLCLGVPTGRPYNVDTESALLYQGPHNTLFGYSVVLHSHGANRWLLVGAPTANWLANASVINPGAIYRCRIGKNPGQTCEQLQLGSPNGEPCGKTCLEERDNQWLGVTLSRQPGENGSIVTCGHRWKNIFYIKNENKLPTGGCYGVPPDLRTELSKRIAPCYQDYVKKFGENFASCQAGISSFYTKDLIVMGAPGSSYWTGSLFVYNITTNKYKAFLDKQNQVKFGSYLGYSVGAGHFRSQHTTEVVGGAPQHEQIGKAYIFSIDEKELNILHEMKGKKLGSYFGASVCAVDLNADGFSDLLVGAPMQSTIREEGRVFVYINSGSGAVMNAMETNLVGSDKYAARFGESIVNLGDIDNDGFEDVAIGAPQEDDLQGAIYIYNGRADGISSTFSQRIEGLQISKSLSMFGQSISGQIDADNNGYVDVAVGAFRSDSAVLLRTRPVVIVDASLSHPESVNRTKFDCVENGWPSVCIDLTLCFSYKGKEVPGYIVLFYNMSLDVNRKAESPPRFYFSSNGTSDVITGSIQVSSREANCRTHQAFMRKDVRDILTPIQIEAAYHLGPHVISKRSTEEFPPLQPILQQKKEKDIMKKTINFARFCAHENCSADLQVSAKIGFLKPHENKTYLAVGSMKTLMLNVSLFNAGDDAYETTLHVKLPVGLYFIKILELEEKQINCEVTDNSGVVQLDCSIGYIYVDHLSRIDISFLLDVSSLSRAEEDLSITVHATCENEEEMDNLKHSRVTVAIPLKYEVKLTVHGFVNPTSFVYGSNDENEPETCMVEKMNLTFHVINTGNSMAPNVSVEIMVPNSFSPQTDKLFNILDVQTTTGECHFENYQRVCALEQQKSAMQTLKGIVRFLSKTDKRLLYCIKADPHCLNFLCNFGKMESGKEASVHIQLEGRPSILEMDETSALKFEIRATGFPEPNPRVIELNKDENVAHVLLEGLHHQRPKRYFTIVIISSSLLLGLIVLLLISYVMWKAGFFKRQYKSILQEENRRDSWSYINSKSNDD
# procedure-details: Inhibition of purified alpha-4 beta-1 binding to VCAM-1 was determined in an ELISA assay.
# Type: protein-complex assay
Where a SMILES comes first, the peptide text is derived from it. Bridges are numbered along the chain shown (N, C = ends). [ ]: non-standard residue; d: D form. 4Amb = NCc1ccc(C(=O)O)cc1; 2Abz = Nc1ccccc1C(=O)O; Inp = O=C(O)C1CCNCC1
Note to self: IC50 under 0.2 µM means criterion met, ties and anything higher get criterion not met.

- compound: "N[C@@H](Cc1ccc(O)cc1)C(=O)N[C@H]1CSSC[C@@H](C(=O)O)NC(=O)c2ccc(cc2)CNC1=O (H-YC[4Amb]C-OH; disulfide 2-4)"
  class-name: "criterion not met"
- compound: "N[C@H](Cc1ccc(O)cc1)C(=O)N[C@H]1CSSC[C@@H](C(=O)O)NC(=O)[C@@H]2CCCN2C(=O)[C@H](CO)NC1=O"
  class-name: "criterion not met"
- compound: "NCCCC[C@H](NC(=O)[C@@H](N)Cc1ccc(O)cc1)C(=O)N[C@H]1CSSC[C@@H](C(=O)O)NC(=O)[C@@H]2CCCN2C(=O)[C@H](CC(=O)O)NC1=O (H-YKCDPC-OH; disulfide 3-6)"
  class-name: "criterion met"
- compound: "N[C@@H](Cc1ccc(O)cc1)C(=O)N[C@H]1CSSC[C@@H](C(=O)O)NC(=O)c2ccccc2NC1=O (H-YC[2Abz]C-OH; disulfide 2-4)"
  class-name: "criterion not met"
- compound: "O=C(N[C@H]1CSSC[C@@H](C(=O)O)NC(=O)[C@@H]2CCCN2C(=O)[C@H](CO)NC1=O)C1CCNCC1 (H-[Inp]CSPC-OH; disulfide 2-5)"
  class-name: "criterion not met"
- compound: "C[C@@H]1NC(=O)[C@@H](NC(=O)[C@@H](N)Cc2ccc(O)cc2)CSSC[C@@H](C(=O)O)NC(=O)[C@@H]2CCCN2C1=O (H-YCAPC-OH; disulfide 2-5)"
  class-name: "criterion met"
- compound: "C[C@@H]1NC(=O)[C@@H]2CCCN2C(=O)[C@@H](NC(=O)[C@@H](N)Cc2ccc(O)cc2)CSSC[C@@H](C(=O)O)NC1=O (H-YCPAC-OH; disulfide 2-5)"
  class-name: "criterion not met"

Data origin, for the record: ChEMBL document CHEMBL1130186
